The reported numbers originate from patent US20040043420A1.

Biological target: T1, Gal4 transcriptional activation domain (AD) fused in frame with AR (yeast, UniProt P10275 1-920, limits assumed)
T1 sequence (looked up): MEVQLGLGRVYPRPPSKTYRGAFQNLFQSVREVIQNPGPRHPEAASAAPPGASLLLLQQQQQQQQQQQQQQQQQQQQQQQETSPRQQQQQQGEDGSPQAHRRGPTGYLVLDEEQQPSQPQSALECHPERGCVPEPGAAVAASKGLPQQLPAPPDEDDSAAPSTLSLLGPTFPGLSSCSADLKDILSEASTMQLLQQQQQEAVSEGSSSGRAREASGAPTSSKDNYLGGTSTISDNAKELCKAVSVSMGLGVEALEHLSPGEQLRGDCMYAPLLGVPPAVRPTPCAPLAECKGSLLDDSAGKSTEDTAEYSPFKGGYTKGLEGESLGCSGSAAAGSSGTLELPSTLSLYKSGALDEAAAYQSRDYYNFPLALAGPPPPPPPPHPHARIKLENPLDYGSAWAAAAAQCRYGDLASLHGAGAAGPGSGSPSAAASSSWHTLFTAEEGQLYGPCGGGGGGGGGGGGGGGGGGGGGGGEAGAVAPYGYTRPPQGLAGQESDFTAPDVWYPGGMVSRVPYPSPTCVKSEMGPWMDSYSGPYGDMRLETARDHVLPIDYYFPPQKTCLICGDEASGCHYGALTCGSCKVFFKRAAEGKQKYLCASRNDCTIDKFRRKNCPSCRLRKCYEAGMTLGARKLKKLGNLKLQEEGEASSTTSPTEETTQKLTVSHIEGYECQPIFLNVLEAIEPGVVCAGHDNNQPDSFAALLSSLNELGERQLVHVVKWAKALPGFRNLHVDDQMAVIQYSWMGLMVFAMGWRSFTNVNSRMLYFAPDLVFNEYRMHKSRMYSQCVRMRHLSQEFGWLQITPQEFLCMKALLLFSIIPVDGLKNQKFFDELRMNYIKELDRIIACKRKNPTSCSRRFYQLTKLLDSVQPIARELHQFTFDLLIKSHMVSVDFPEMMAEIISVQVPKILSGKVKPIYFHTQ
Assay: cell-based or functional assay
Where β-galactosidase activity (yeast two-hybrid), MPA equals or exceeds 5, the correct label is t; where it does not, the label is f.

Sample answers from the record:
Data request: Quick check: does B23H12 (peptide) MKLLSSIEQACDICRLKKLKCSKEKPKCAKCLKNNWECRYSPKTKRSPLTRAHLTEVESRLERLEQLFLLIFPREDLDMILKMDSLQDIKALLTGLFVQDNVNKDAVTDRLASVETDMPLTLRQHRISATSSSEESSNKGQRQLTVSEFPELLAMTRWGRHAALLEPQRLPPPRTTTQPQTEFERMFFFTRPMRTTGLLDLQPS have β-galactosidase activity (yeast two-hybrid), MPA greater than or equal to 5?
Data returned: f

Data request: Same question for M7B1 (peptide) MKLLSSIEQACDICRLKKLKCSKEKPKCAKCLKNNWECRYSPKTKRSPLTRAHLTEVESRLERLEQLFLLIFPREDLDMILKMDSLQDIKALLTGLFVQDNVNKDAVTDRLASVETDMPLTLRQHRISATSSSEESSNKGQRQLTVSEFVGWFTGMAACSYAPDLDLQPS please.
Data returned: t

Data request: Same question for M2H3 (peptide) MKLLSSIEQACDICRLKKLKCSKEKPKCAKCLKNNWECRYSPKTKRSPLTRAHLTEVESRLERLEQLFLLIFPREDLDMILKMDSLQDIKALLTGLFVQDNVNKDAVTDRLASVETDMPLTLRQHRISATSSSEESSNKGQRQLTVSEFRQSFVSEILGGGWLPLDLQPS please.
Data returned: t

Data request: Same question for B18C4 (peptide) MKLLSSIEQACDICRLKKLKCSKEKPKCAKCLKNNWECRYSPKTKRSPLTRAHLTEVESRLERLEQLFLLIFPREDLDMILKMDSLQDIKALLTGLFVQDNVNKDAVTDRLASVETDMPLTLRQHRISATSSSEESSNKGQRQLTVSEFDSPWVWFGGEPGLNLLDLQPS please.
Data returned: f

Next:
Data request: Quick check: does B22F6 (peptide) MKLLSSIEQACDICRLKKLKCSKEKPKCAKCLKNNWECRYSPKTKRSPLTRAHLTEVESRLERLEQLFLLIFPREDLDMILKMDSLQDIKALLTGLFVQDNVNKDAVTDRLASVETDMPLTLRQHRISATSSSEESSNKGQRQLTVSEFLSGLEMEVVLWHYGRLDLQPS have β-galactosidase activity (yeast two-hybrid), MPA greater than or equal to 5?
Data returned: f

Data request: Same question for M4D1 (peptide) MKLLSSIEQACDICRLKKLKCSKEKPKCAKCLKNNWECRYSPKTKRSPLTRAHLTEVESRLERLEQLFLLIFPREDLDMILKMDSLQDIKALLTGLFVQDNVNKDAVTDRLASVETDMPLTLRQHRISATSSSEESSNKGQRQLTVSEFRFPFHEMVREWESMGLERVRYAEP please.
Data returned: f
